Every entry's value here was drawn from patent US10328163B2.

molecular target: Aβ1-40 (Homo sapiens); experiment: Competition binding assay vs [^3H]PiB on synthetic amyloid peptide aggregates (Aβ1-40); details: Table 3; read-out: Affinity Ki, Aβ1-40
Sequence (P05067 672-711): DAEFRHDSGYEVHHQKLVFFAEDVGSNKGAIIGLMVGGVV
pKi: −log10 of the molar value.
measurement.type: pKi

* CN(C)c1ccc(-c2csc(-c3nc(-c4ccc(F)nc4)cs3)n2)cc1 [Compound 21] | 8.22

I. CN(C)c1ccc(-c2csc(-c3nc(-c4ccc(O)nc4)cs3)n2)cc1 [Compound 20]
II. COc1sc(-c2csc(-c3nc(-c4ccc5c(c4)OCO5)cs3)n2)cc1F [Compound 23]
Query: Could you point out whether the larger pKi belongs to I or to II ? Respond using the label that marks the chosen record.
Response: I

###

biological target: Aβ1-40 (Homo sapiens); assay: Competition binding assay vs [^3H]PiB on synthetic amyloid peptide aggregates (Aβ1-40); settings: 100 nM; Table 1
measurement.type: inhibition at 0.1 µM (%)

• CCOc1ccc(-c2csc(-c3nc(-c4ccc(OC)cc4)cs3)n2)cc1 [Compound 6] = 22
• CN(C)c1ccc(-c2csc(-c3nc(-c4ccc(O)cc4)cs3)n2)cc1 [Compound 1] = 94
• COc1ccc(-c2csc(-c3nc(-c4ccc5c(c4)OCO5)cs3)n2)cc1O [Compound 2] = 81
• CCOc1ccc(-c2csc(-c3nc(-c4ccc5c(c4)OCO5)cs3)n2)cc1 [Compound 4] = 11

A. COc1ccc(-c2csc(-c3nc(-c4ccc5c(c4)OCO5)cs3)n2)cc1F [Compound 3]
B. CCCCOc1ccc(-c2csc(-c3nc(-c4ccc(OC)c(F)c4)cs3)n2)cc1 [Compound 5]
Query: Please indicate which has the smaller reported inhibition at 0.1 µM: A , or B . Returns: label corresponding to the selected item.
Response: B
(B: 11%, A: 22%)

###

target: human α-synuclein recombinant aggregate (fibrils) (Homo sapiens); assay: Saturation and competition binding assay on α-synuclein aggregates (fibrils); details: Table 1; read-out: Affinity Ki, α-syn
measurement.type: Ki (µM)

Observe how each entry below is paired with its result.
• CCOc1ccc(-c2csc(-c3nc(-c4ccc(OC)cc4)cs3)n2)cc1 [Compound 6] = 0.371
• COc1ccc(-c2csc(-c3nc(-c4ccc5c(c4)OCO5)cs3)n2)cc1O [Compound 2] = 0.009

I. CCOc1ccc(-c2csc(-c3nc(-c4ccc5c(c4)OCO5)cs3)n2)cc1 [Compound 4]
II. COc1ccc(-c2csc(-c3nc(-c4ccc5c(c4)OCO5)cs3)n2)cc1F [Compound 3]
III. CCCCOc1ccc(-c2csc(-c3nc(-c4ccc(OC)c(F)c4)cs3)n2)cc1 [Compound 5]
Query: List from greatest to least Ki. A complete answer lists every label in the requested sequence.
Response: III, I, II
(III: 0.328 µM, I: 0.01 µM, II: 0.003 µM)

###

target: Aβ1-42 (Homo sapiens); assay: Competition binding assay vs [^3H]PiB on synthetic amyloid peptide aggregates (Aβ1-42); settings: 100 nM; Table 3
Sequence (P05067 672-713): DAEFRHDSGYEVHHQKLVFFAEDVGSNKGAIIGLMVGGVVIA
measurement.type: inhibition at 0.1 µM (%)

a. CN(C)c1ccc(-c2csc(-c3nc(-c4ccc(O)nc4)cs3)n2)cc1 [Compound 20]
b. Fc1ccc(-c2cc(-c3csc(-c4nc(-c5ccc6c(c5)OCO6)cs4)n3)on2)cc1 [Compound 22]
Query: Of a and b , whose reported inhibition at 0.1 µM is the larger number? Identify your selection by its label.
Response: a
